measurementKind: Ki (µM)
Write the number in µM without appending the unit.

Query for Cannabinoid receptor 2 (Homo sapiens): what Ki does the record show for `CCCn1c(C)c(C(=O)c2cc([N+](=O)[O-])cc3ccccc23)c2ccccc21` ?
0.143

What reported Ki corresponds to `CCCn1c(C)c(C(=O)c2cc(N)cc3ccccc23)c2ccccc21` on Cannabinoid receptor 2 (Homo sapiens)?
0.191

Form entry - test system: Cannabinoid receptor 2 (Homo sapiens); read-out: Ki; compound: `CCCn1c(C)c(C(=O)c2cc(NC(=O)CN)cc3ccccc23)c2ccccc21`
Sequence (P34972 whole entry): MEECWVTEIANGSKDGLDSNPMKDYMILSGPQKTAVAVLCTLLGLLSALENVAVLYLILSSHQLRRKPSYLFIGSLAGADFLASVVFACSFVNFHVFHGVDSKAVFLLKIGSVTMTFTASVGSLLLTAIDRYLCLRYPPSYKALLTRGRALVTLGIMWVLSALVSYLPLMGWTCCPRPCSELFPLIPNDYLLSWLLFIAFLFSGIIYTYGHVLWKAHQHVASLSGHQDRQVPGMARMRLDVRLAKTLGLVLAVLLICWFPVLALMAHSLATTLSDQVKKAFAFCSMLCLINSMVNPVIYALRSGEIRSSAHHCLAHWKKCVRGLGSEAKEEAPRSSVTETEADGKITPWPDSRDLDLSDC
0.42
